# TESTED TARGET: Plasmodium falciparum PMIX (Plasmodium falciparum)
# Sequence (Q8ILG2 1-627): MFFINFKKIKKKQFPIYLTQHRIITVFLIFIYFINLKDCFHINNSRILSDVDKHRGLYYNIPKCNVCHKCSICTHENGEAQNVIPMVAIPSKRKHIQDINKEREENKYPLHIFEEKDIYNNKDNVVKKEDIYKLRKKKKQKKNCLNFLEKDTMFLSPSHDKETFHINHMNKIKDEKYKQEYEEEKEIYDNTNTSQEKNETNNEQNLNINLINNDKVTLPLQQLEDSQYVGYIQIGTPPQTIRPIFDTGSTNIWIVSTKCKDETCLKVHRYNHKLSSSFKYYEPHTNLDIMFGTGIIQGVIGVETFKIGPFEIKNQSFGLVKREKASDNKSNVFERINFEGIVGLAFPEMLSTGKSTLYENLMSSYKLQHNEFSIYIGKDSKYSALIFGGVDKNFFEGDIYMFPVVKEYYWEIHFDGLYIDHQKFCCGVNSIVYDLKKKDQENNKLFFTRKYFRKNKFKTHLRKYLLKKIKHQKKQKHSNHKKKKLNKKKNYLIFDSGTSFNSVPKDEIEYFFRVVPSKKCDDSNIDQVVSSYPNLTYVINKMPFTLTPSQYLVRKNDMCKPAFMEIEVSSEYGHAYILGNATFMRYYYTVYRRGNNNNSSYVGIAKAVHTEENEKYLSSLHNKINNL
# METHOD: Plasmepsin IX fluorogenic substrate cleavage assay
# Type: biochemical
# EXPERIMENTAL CONTEXT: P. falciparum PMIX; average of three independent experiments; read-out: PMIX IC50 (SD)
For each entry below, report its pIC50 value.
Value format note: pIC50 is -log10 of concentration (mol/L); just state the number.

Query string: Bench note: what pIC50 did CN1C(=N)NC2(c3cc(F)ccc3F)CN(c3ncccc3-c3ccc(F)cc3Cl)CC2C1=O (centres unmarked) show?
Result string: 5.49

Query string: Bench note: what pIC50 did Cc1ccc(-c2cccnc2N2CC3C(=O)N(C)C(=N)NC3(c3cc(F)ccc3F)C2)c(Cl)c1 (centres unmarked) show?
Result string: 5.79

Query string: Bench note: what pIC50 did CN1C(=N)NC2(c3cc(F)ccc3F)CN(c3ncccc3-c3ccc(Cl)c(F)c3)CC2C1=O (centres unmarked) show?
Result string: 5.94

Query string: Bench note: what pIC50 did CN1C(=N)NC2(c3cc(F)ccc3F)CN(c3ncccc3-c3ccccc3F)CC2C1=O (centres unmarked) show?
Result string: 5.34

Query string: Bench note: what pIC50 did CN1C(=N)NC2(c3cc(F)ccc3F)CN(c3ncccc3-c3ccc(Cl)cc3)CC2C1=O (centres unmarked) show?
Result string: 5.97

Query string: Bench note: what pIC50 did CN1C(=N)NC2(c3cc(F)ccc3F)CN(c3n[nH]cc3-c3ccccc3)CC2C1=O (centres unmarked) show?
Result string: 5.66

Query string: Bench note: what pIC50 did COc1ccc(-c2cccnc2N2CC3C(=O)N(C)C(=N)NC3(c3cc(F)ccc3F)C2)c(Cl)c1 (centres unmarked) show?
Result string: 5.79

Query string: Bench note: what pIC50 did CN1C(=N)NC2(c3cc(F)ccc3F)CN(c3ncccc3-c3ccccc3Cl)CC2C1=O (centres unmarked) show?
Result string: 5.31

Query string: Bench note: what pIC50 did CN1C(=N)NC2(c3cc(F)ccc3F)CN(c3ncsc3-c3ccccc3)CC2C1=O (centres unmarked) show?
Result string: 6.00

Query string: Bench note: what pIC50 did COc1ccc(-c2cccnc2N2CC3C(=O)N(C)C(=N)NC3(c3cc(F)ccc3F)C2)cc1 (centres unmarked) show?
Result string: 5.70
